- experimental.system: UniProtKB P15659
pIC50: −log10 of the molar value.
Reported pIC50 values are given for each entry in this list.

{"columns": ["compound", "experimental.system", "pIC50"],
 "data": [
  ["CC(C)N1CC(C(c2ccccc2)c2cccnc2)n2ncc(=O)c(O)c2C1=O (stereo not shown)", "UniProtKB P15659", "> 6.60"],
  ["C#Cc1ccn([C@H](c2ccccc2)[C@@H]2CN(C)C(=O)c3c(O)c(=O)cnn32)n1", "UniProtKB P15659", "> 6.60"],
  ["CN1C[C@@H](C2c3cc(F)ccc3CCc3c(F)cccc32)n2ncc(=O)c(O)c2C1=O (stereo partly shown)", "UniProtKB P15659", "6.00 to 6.60"],
  ["CN1C[C@H]([C@H](c2ccccc2)c2cccc(OC3CC3)c2)n2ncc(=O)c(O)c2C1=O", "UniProtKB P15659", "> 6.60"]
]}

Reference source: patent US10980805B2
